molecular target: PDCD6 23-191 EF-hand_5+EF-hand_7 (domain begin residue: 23, domain end residue: 191), O75340; test: phage ELISA signal ratio (GST-PRM binding over GST background); higher = stronger binding of peptide-phage to the PRM
Sequence (O75340 whole entry): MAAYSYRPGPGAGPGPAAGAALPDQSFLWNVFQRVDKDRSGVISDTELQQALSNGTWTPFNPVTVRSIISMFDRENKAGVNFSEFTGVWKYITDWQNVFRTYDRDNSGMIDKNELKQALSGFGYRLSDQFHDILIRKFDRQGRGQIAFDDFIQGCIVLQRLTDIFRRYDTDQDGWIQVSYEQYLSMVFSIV
Experimental Readout: phage ELISA signal ratio
Keep it simple and answer with nothing but the number.

MYGWGPLLMEMNPWQW | 20.8

Exercise: Any idea what its phage ELISA signal ratio is? The binder is QTDYAYGFYPFIEQHF
Key: 32.3

Exercise: # phage ELISA signal ratio lookup, item ASGEHAVGWQDWVWIS
Key: 31.1

Exercise: Entry WADWVFQENEKWDLFV has what phage ELISA signal ratio?
Key: 29.1

Exercise: // query phage ELISA signal ratio value for entry YPYGWQQWVWESEQVQ
Key: 27.1

Exercise: If you can, please state the reported phage ELISA signal ratio value of MPQFGWEEWVLDGIHF .
Key: 20.2

Exercise: Bench note: what phage ELISA signal ratio did WAEWVFSDEDPPGHMV show?
Key: 23

Exercise: What does the record list as phage ELISA signal ratio for FQEVTMYGWRPEYLSD ?
Key: 27.7
